The values you see were collected from patent US9469650B2.

# System: A549/ATCC
# Procedure text: panel of 60 human tumor cell lines, growth inhibition (Non-Small Cell Lung Cancer)
# Experimental conditions: Homo sapiens, A549, read-out: TGI
Label Satisfied when IC (TGI) >= 40 µM; otherwise Not satisfied.

{"Structure as smiles": "C=C1C(=O)O[C@H]2[C@H]1CC/C(COC(=O)NCCN1CCCC1)=C\\CC[C@@]1(C)O[C@@H]21", "Assigned class": "Satisfied"}
{"Structure as smiles": "C=C1C(=O)O[C@H]2[C@H]1CC/C(COC(=O)CCC(=O)NCc1ccc(Cl)nc1)=C\\CC[C@@]1(C)O[C@@H]21", "Assigned class": "Not satisfied"}
{"Structure as smiles": "C=C1C(=O)O[C@H]2[C@H]1CC/C(COC(=O)Nc1n[nH]c(SC)n1)=C\\CC[C@@]1(C)O[C@@H]21", "Assigned class": "Not satisfied"}
{"Structure as smiles": "C=C1C(=O)O[C@H]2[C@H]1CC/C(COC(=S)n1ccnc1)=C\\CC[C@@]1(C)O[C@@H]21", "Assigned class": "Satisfied"}
{"Structure as smiles": "C=C1C(=O)O[C@H]2[C@H]1CC/C(COC(=O)NCCCCCCO)=C\\CC[C@@]1(C)O[C@@H]21", "Assigned class": "Not satisfied"}

----------
Recorded below: CC50, system MDA-MB-435.

{"Structure as smiles": "C=C1C(=O)O[C@H]2[C@H]1CC/C(COC(=O)NCCN1CCCCC1)=C\\CC[C@@]1(C)O[C@@H]21", "Readout units": "µM", "CC50": 43.8}
{"Structure as smiles": "C=C1C(=O)O[C@H]2[C@H]1CC/C(COC(=O)NC)=C\\CC[C@@]1(C)O[C@@H]21", "Readout units": "µM", "CC50": 53.1}
{"Structure as smiles": "C=C1C(=O)O[C@H]2[C@H]1CC/C(COC(=O)CCC(=O)N1CCC(C)CC1)=C\\CC[C@@]1(C)O[C@@H]21", "Readout units": "µM", "CC50": 61.9}
{"Structure as smiles": "C=C1C(=O)O[C@H]2[C@H]1CC/C(COC(=O)N1CCC(F)(F)CC1)=C\\CC[C@@]1(C)O[C@@H]21", "Readout units": "µM", "CC50": 95.1}
{"Structure as smiles": "C=C1C(=O)O[C@H]2[C@H]1CC/C(COC(=O)NCCO)=C\\CC[C@@]1(C)O[C@@H]21", "Readout units": "µM", "CC50": 52}
{"Structure as smiles": "C=C1C(=O)O[C@H]2[C@H]1CC/C(COC(=O)N1CCN(C)CC1)=C\\CC[C@@]1(C)O[C@@H]21", "Readout units": "µM", "CC50": 57.5}

----------
# Test system: NCI-H322M
# Procedure text: panel of 60 human tumor cell lines, growth inhibition (Non-Small Cell Lung Cancer)
# Experimental conditions: Homo sapiens

{"Structure as smiles": "C=C1C(=O)O[C@H]2[C@H]1CC/C(COC(=O)NCCN1CCOCC1)=C\\CC[C@@]1(C)O[C@@H]21", "GI50": "37.9 µM"}
{"Structure as smiles": "C=C1C(=O)O[C@H]2[C@H]1CC/C(COC(=O)OCCN(C)C)=C\\CC[C@@]1(C)O[C@@H]21", "GI50": "28.7 µM"}
{"Structure as smiles": "C=C1C(=O)O[C@H]2[C@H]1CC/C(COC(=O)Nc1n[nH]c(SC)n1)=C\\CC[C@@]1(C)O[C@@H]21", "GI50": "14.2 µM"}
{"Structure as smiles": "C=C1C(=O)O[C@H]2[C@H]1CC/C(COC(=O)NCCCCCCO)=C\\CC[C@@]1(C)O[C@@H]21", "GI50": "32.2 µM"}
